# growth per entry
- Test system: A549/ATCC NSCLC
- protocolNotes: NCI-60 one-dose screen, 48 h (100 = growth as untreated, 0 = no growth, -100 = all killed)
- conditionSet: 10 µM unless noted
Compounds without any hit were thinned out: in the full panel of roughly 83,000, 20% have a hit.
Your answer should be a plain number; it is taken to be in %.

> print(dat)
                                 smilescode  resultnumber
1  O=C(Nc1ccc(NC(=O)c2cc(=O)[nH]c3ccccc23)cc1)Nc1cccc(C(F)(F)F)c1          86.3
2  COc1cc(OC)c2sc(-c3ccc(-n4cncc4-c4ccc(OC)c(OC)c4)cc3)nc2c1          45.6
3                COc1ccc(N2CCC(=O)NC2=S)cc1           108
4  COc1cccc([C@H]2c3[nH]c4ccccc4c3C[C@H]3C(=O)N(CCCCCCC(=O)NO)CC(=O)N23)c1          94.9

Note growth for the molecule shown: `O=S(=O)(Nc1cc(Br)c(O)c2ccccc12)c1ccc(F)cc1`
102

----------
- Tested on: OVCAR-5 ovarian
- protocolNotes: NCI-60 one-dose screen, 48 h
- conditionSet: 10 µM unless noted
The panel holds about 83,000 compounds, 20% with a hit somewhere; the sample as a whole holds those more often. The source made the active and inactive calls. How the source made its calls: active means growth percent below 10; inactive means the rest.
// classify into yes (active), no (inactive)

Solved entries:
compound	assayedTarget	classLabel
Cc1oc(-c2ccc(Cl)cc2)nc1/C=C/C(=O)c1ccccc1	OVCAR-5 ovarian	no
Fc1ccc2[nH]cc(-c3nonc3-c3c[nH]c4ccc(Br)cc34)c2c1	OVCAR-5 ovarian	no
Cn1cccc1C(=O)C1C(c2cccc([N+](=O)[O-])c2)C2C3CCCCC3CN2C12C(=O)Nc1ccc(Cl)cc12 (stereo not drawn)	OVCAR-5 ovarian	no
COc1ccc(NC(=O)c2sc3nc(C)c(C(=O)/C=C/c4cccc(OC)c4)cc3c2N)cc1	OVCAR-5 ovarian	no
COc1cc2c(c(OC)c1OC)-c1ccc(OC)c(=O)cc1[C@@H](NC(=O)CCl)CC2	OVCAR-5 ovarian	no
O=C(CCCCC1CCSS1)Nc1ncnc2n[nH]c(-c3ccc(Oc4ccccc4)cc3)c12 (stereo not drawn)	OVCAR-5 ovarian	no
COc1cccc([C@H]2c3[nH]c4ccccc4c3C[C@H]3C(=O)N(CCCCCCC(=O)NO)CC(=O)N23)c1	OVCAR-5 ovarian	no
S=C(Nc1ccc(-c2nc(N3CCOCC3)c3cccn3n2)cc1)Nc1cccnc1	OVCAR-5 ovarian	no

Hello, I am checking results. What call was entered for `Cn1cc(-c2nonc2-c2c[nH]c3ccc(Br)cc23)c2cc(Br)ccc21` ?
no

Hello, I am checking results. What call was entered for `CC1(C)CCC(S(=O)(=O)c2ccc3c(c2)/C(=N\O)c2cc(S(=O)(=O)N4CCC(O)(c5cccc(C(F)(F)F)c5)CC4)ccc2-3)CC1` ?
yes

Hello, I am checking results. What call was entered for `C/C(Nc1ccc(Cl)c(Cl)c1)=C1\CCOC1=O` ?
no

----------
- System: RXF 393 renal
- protocolNotes: NCI-60 one-dose screen, 48 h (100 = growth as untreated, 0 = no growth, -100 = all killed)
- conditionSet: 10 µM unless noted
About 83,000 compounds went through this panel and 20% of them were active in at least one assay; those are over-represented in the sample as a whole.
Tag: T if measured growth is not below 30%, F if it is.

Solved entries:
> print(dat)
                                 smilescode  assayedtarget  classlabel
1  COCCn1cc(-c2nc(-c3cc4cccnc4n3CCOC)cs2)c2cc(OC)ccc21  RXF 393 renal           T
2        Cc1cc(Cl)ccc1NC(=O)c1cc2ccccc2cc1O  RXF 393 renal           F
3  C=CCn1c(SCC(=O)Nc2ccc(C(=O)/C=C/c3ccc(Cl)cc3)cc2)nnc1-c1cc(-c2ccc(S(N)(=O)=O)cc2)nc2ccccc12  RXF 393 renal           T
4  O=C(Cc1ccccc1)Nc1nc(O)c(/C=C2\C(=O)C=Cc3ccccc32)s1  RXF 393 renal           T

// next entry
Does `Cn1cc(-c2nonc2-c2c[nH]c3ccc(Br)cc23)c2cc(Br)ccc21` have a reported growth of at least 30%?
F

----------
- Test system: K-562 leukemia
- protocolNotes: NCI-60 one-dose screen, 48 h
- conditionSet: 10 µM unless noted
- Procedure: Cells are grown in 96 well plates and exposed to the test compound for 48 hours. Compounds are tested at a single concentration, which is 10^-5 M for most compounds. The reported endpoint is percent growth (GI% or GIPRCNT), where numbers from 0 - 100% represent growth inhibition, and numbers from -100% - 0 represent cell death. For example, a value of 40 represents 60% growth inhibition. A value of 0 means no net growth occurred over the course of the experiment. […]
The panel holds about 83,000 compounds, 20% with a hit somewhere; the sample as a whole holds those more often. Active and inactive are the calls of the source. The calls were made as follows: active = growth percent below 10; inactive = the rest.
// classify into T for active, F for inactive

compound	classLabel
COc1ccc(C(c2cc(OC)c(OC)c(OC)c2)N2CCN(c3ccccc3)CC2)cc1 (configuration not stated)	F

Hello, I am checking results. What call was entered for `CC1=Nc2cnc(Nc3ccc(OCCN4CCCCC4)cc3)nc2Nc2ccccc21` ?
F

----------
- Tested on: MDA-MB-231 breast
- protocolNotes: NCI-60 one-dose screen, 48 h
- conditionSet: 10 µM unless noted
The panel holds about 83,000 compounds, 20% with a hit somewhere; the sample as a whole holds those more often. Activity calls are given as the source filed them. How the source made its calls: active means growth percent below 10; inactive means the rest.
// classify into label 1 for active, label 0 for inactive

Solved entries:
> print(dat)
                                 smilescode  classlabel
1  CCCCNC(=O)Oc1ccc(/C(=C(/CC)Cc2ccccc2)c2ccc(OCCN3CCCCCC3)cc2)cc1     label 0
2  COc1ccc2c(O)c(/C=C3\N=Nc4ncccc43)oc2c1C[C@H]1CCNC[C@H]1F     label 1
3  Cc1cc2c(O)c(-c3cccc(Cl)c3)c3sc(=O)oc3c2cc1C     label 0
4    N#Cc1c(N)nnn1Cc1cc(=O)oc2c1ccc1ccccc12     label 0
5  c1cnc2[nH]cc(-c3csc(-c4cn(CCCN5CCOCC5)c5ccccc45)n3)c2c1     label 0
6  CCOC(=O)c1c(NC(=O)c2ccc(C(C)C)cc2)sc2c(CN(C)C)c(O)ccc12     label 0

Hello, I am checking results. What call was entered for `Cn1ccc2c3c(ccc21)CC3=O` ?
label 0

Hello, I am checking results. What call was entered for `CN1CCN(c2ccc(NC(=O)c3nc4ccc5[nH]ncc5c4c4c3CCCC4)cc2C(F)(F)F)CC1` ?
label 0

Hello, I am checking results. What call was entered for `CCc1n(Cc2ccc3ccccc3c2)cc[n+]1Cc1ccc2ccccc2c1` ?
label 1

Hello, I am checking results. What call was entered for `CC(C)=NNc1ccccn1` ?
label 0

----------
- System: U251 CNS
- protocolNotes: NCI-60 one-dose screen, 48 h
- conditionSet: 10 µM unless noted
About 83,000 compounds went through this panel and 20% of them were active in at least one assay; those are over-represented in the sample as a whole. The source made the active and inactive calls. The calls were made as follows: active = growth percent below 10; inactive = the rest.
// classify into active, inactive

> print(dat)
                                   compound  classlabel
1  Fc1cc(F)cc(C(c2c[nH]c3ccccc23)c2c[nH]c3ccccc23)c1    inactive
2  Cc1ccccc1NC(=O)c1sc2nc(C)c(C(=O)/C=C/c3ccccc3)cc2c1N      active
3  COCCNC(=O)c1ccc(-c2nc3ccc4[nH]ncc4c3c3c2CCCC3)cc1    inactive
4  c1cc2[nH]ncc2cc1-c1nc2ccc3[nH]ncc3c2c2c1CCCC2    inactive
5  CO[C@H]1/C=C(/C)CCC[C@H](C)[C@H](O)[C@@H](C)C(=O)C(C)(C)[C@@H](O)CC(=O)O[C@@H]1/C(C)=C/c1csc(C)n1    inactive

Hello, I am checking results. What call was entered for `CCSc1nc(NC)c2cc(-c3ccc(C(F)(F)F)cc3)ccc2n1` ?
inactive

Hello, I am checking results. What call was entered for `O=C(c1ccc(-c2ccccc2)cc1)c1ccc([N+](=O)[O-])cc1` ?
inactive

Hello, I am checking results. What call was entered for `CCOC(=O)/C=C1\S/C(=N\Nc2cc(=O)[nH]c3ccc(Cl)cc23)N(c2ccccc2)C1=O` ?
inactive

Hello, I am checking results. What call was entered for `COc1cc(-n2cc(-c3cc(O)c(C/C=C(\C)CCC=C(C)C)c(O)c3)nn2)cc2c1O[C@]1(C)CC[C@@H](O)C(C)(C)[C@H]1C2` ?
active

Hello, I am checking results. What call was entered for `CS(=O)(=O)Nc1cc(-c2ccc3ncnc(Nc4c(Cl)ccc5c4OCO5)c3c2)cnc1Cl` ?
active
